Answer each item with its documented GI50.
# System: OVCAR-3 ovarian
# assay_overview: NCI tumour cell line growth inhibition, 48 h

IN: Answer with the recorded GI50 of CC12OC(c3ccccc3)=CC(c3ccc(Cl)cc3)=C1C(c1ccccc1)=CC2=O (centres undefined) only.
OUT: 80000 nM

IN: Answer with the recorded GI50 of CCN1CCN(C(=O)[C@]23CC[C@@H](C)[C@H](C)[C@@H]2C2=CC[C@@H]4[C@@]5(C)C/C(=C/c6ccncc6)C(=O)C(C)(C)[C@@H]5CC[C@@]4(C)[C@]2(C)CC3)CC1 only.
OUT: 1560 nM

IN: Answer with the recorded GI50 of NOCC(=O)O only.
OUT: > 100000 nM

IN: Answer with the recorded GI50 of COc1ccc(/C=N\NC(=O)CN2CCN(c3cc4c(cc3F)c(=O)c(C(=O)N/N=C/c3ccc(OC)c(OC)c3)cn4C3CC3)CC2)cc1OC only.
OUT: 2650 nM
